- target-system: hTRPV1 (Homo sapiens)
- Construct: expressed in transfected cells; host or cells: HEK293
- experimental-protocol: Human TRPV1 (hTRPV1) functional assay, FLIPR intracellular Ca2+, capsaicin challenge
- Format: cell-based
- run-conditions: test concentration of 0.2 μm; HEK293 cells expressing hTRPV1, capsaicin 0.030 μM challenge; read-out: percent inhibition (symbol b)
Listed here: items and their measured inhibition at 0.2 µM.
Field: numeric (%). Do not append units.

Completed entries (count: 3):
INSERT INTO assay_data (compound, value) VALUES
  ('CCC(Oc1ccc(C(F)(F)F)cc1)c1nc2cc(-c3ccccc3S(N)(=O)=O)ccc2[nH]1 (stereo not shown)', 20),
  ('CS(=O)(=O)c1ccccc1-c1ccc2[nH]c(COc3ccc4ccccc4c3)nc2c1', 99),
  ('CS(=O)(=O)c1ccccc1-c1ccc2[nH]c(COc3ccc4c(c3)CCCC4)nc2c1', 96);

Okay, now this compound:
### Prompt What does the data say about its inhibition at 0.2 µM? Entry: CS(=O)(=O)c1ccccc1-c1ccc2[nH]c(COc3ccc(F)c(F)c3F)nc2c1
### Response 33

----------
Listed here: items and their measured inhibition at 0.2 µM.
- target-system: hTRPV1 (Homo sapiens, UniProt Q8NER1)
- Construct: expressed in transfected cells; host or cells: HEK293
- Sequence (Q8NER1 whole entry): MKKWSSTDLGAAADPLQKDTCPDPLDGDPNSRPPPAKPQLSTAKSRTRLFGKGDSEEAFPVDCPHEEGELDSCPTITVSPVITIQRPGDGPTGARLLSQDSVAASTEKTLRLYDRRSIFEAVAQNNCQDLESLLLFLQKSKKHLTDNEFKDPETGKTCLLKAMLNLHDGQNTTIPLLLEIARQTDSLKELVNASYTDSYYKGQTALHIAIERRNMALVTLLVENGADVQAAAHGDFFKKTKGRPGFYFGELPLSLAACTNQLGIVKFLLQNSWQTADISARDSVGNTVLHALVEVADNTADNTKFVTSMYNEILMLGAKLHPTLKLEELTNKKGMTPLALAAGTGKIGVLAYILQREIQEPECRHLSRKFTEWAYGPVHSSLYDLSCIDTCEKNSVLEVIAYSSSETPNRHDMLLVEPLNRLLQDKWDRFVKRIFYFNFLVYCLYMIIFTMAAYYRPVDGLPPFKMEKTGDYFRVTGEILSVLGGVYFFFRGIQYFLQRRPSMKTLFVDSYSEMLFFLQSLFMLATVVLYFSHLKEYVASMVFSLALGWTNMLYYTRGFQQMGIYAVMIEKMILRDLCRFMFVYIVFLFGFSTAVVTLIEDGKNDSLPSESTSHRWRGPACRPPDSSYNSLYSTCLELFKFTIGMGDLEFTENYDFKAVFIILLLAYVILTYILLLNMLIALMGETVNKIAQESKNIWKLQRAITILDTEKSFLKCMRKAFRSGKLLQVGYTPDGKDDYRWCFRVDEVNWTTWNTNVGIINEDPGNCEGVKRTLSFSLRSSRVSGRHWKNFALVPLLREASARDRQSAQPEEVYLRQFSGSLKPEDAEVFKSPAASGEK
- experimental-protocol: Human TRPV1 (hTRPV1) functional assay, FLIPR intracellular Ca2+, capsaicin challenge
- Assay type: cell-based
- run-conditions: test concentration of 0.2 μm; HEK293 cells expressing hTRPV1, capsaicin 0.030 μM challenge; read-out: percent inhibition (symbol b)
Field: numeric (%). Do not append units.

Completed entries (count: 5):
INSERT INTO assay_data (compound, readout_units, value) VALUES
  ('CC(C)(O)CNC(=O)c1ccccc1-c1ccc2[nH]c(COc3ccc(C(F)(F)F)cc3)nc2c1 [Cpd 153]', '%', 31),
  ('CC(C)(O)c1ccccc1-c1ccc2[nH]c(COc3ccc(C4CC4)cc3)nc2c1 [Cpd 163]', '%', 98),
  ('NS(=O)(=O)c1ccccc1-c1ccc2[nH]c(CS(=O)(=O)c3ccc(C(F)(F)F)cc3)nc2c1 [Cpd 44]', '%', 12),
  ('CC(=O)Nc1ccc(OCc2nc3cc(-c4ccccc4S(C)(=O)=O)ccc3[nH]2)cc1 [Cpd 95]', '%', 1),
  ('CC(=O)c1ccc(OCc2nc3cc(-c4ccccc4S(C)(=O)=O)ccc3[nH]2)cc1 [Cpd 79]', '%', 61);

### Prompt What does the data say about its inhibition at 0.2 µM? Entry: CC(C)(O)C(=O)c1ccccc1-c1ccc2[nH]c(COc3ccc(C(F)(F)F)cc3)nc2c1 [Cpd 147]
### Response 98

----------
- target-system: hTRPV1 (Homo sapiens)
- Construct: expressed in transfected cells; host or cells: HEK293
- experimental-protocol: Human TRPV1 (hTRPV1) functional assay, FLIPR intracellular Ca2+, capsaicin challenge
- Assay type: cell-based
- run-conditions: test concentration of 0.2 μm; HEK293 cells expressing hTRPV1, capsaicin 0.030 μM challenge; read-out: percent inhibition (symbol b)
- Procedure: The functional activity of the test compounds was determined by measuring changes in intracellular calcium concentration using a Ca^++-sensitive fluorescent dye and FLIPR™ technology. Increases in Ca^++ concentration were readily detected upon challenge with capsaicin. […] EC50 or IC50 values were determined from concentration-response studies, which were generated using the average of quadruplicate wells for each data point. […]
Definition: the class of an entry is the range in range A: < 60%; range B: ≥ 60% and < 90%; range C: ≥ 90% that contains its inhibition at 0.2 µM.

Solved cases below.
INSERT INTO measurements (molecule, target_system, discrete_label) VALUES
  ('CC(O)CNC(=O)c1ccccc1-c1ccc2[nH]c(COc3ccc(C(F)(F)F)cc3)nc2c1 (centres unmarked)', 'hTRPV1 (Homo sapiens)', 'range B'),
  ('CS(=O)(=O)c1ccccc1-c1ccc2[nH]c(COc3ccc(F)cc3)nc2c1', 'hTRPV1 (Homo sapiens)', 'range A'),
  ('NS(=O)(=O)c1ccccc1-c1ccc2[nH]c(COc3ccc(C4CC4)cc3)nc2c1', 'hTRPV1 (Homo sapiens)', 'range C');

### Prompt Exam item: assign CS(=O)(=O)c1ccccc1-c1ccc2[nH]c(COc3ccc(Cl)cc3Cl)nc2c1 to the correct category.
### Response range A

### Prompt Exam item: assign CN(C)S(=O)(=O)c1ccccc1-c1ccc2[nH]c(COc3ccc(C4CC4)cc3)nc2c1 to the correct category.
### Response range C

### Prompt Exam item: assign CC(C)(C)c1ccc(OCc2nc3cc(-c4ccccc4S(C)(=O)=O)ccc3[nH]2)cc1 to the correct category.
### Response range C

### Prompt Exam item: assign COC(=O)CCc1ccc(OCc2nc3cc(-c4ccccc4S(C)(=O)=O)ccc3[nH]2)cc1 to the correct category.
### Response range A

### Prompt Exam item: assign CS(=O)(=O)c1ccccc1-c1ccc2[nH]c(COc3cc(Cl)cc(Cl)c3)nc2c1 to the correct category.
### Response range A

### Prompt Exam item: assign Cc1ccc(OCc2nc3cc(-c4ccccc4S(C)(=O)=O)ccc3[nH]2)cc1 to the correct category.
### Response range C

### Prompt Exam item: assign CC(Oc1ccc(C(F)(F)F)cc1)c1nc2cc(-c3ccccc3S(N)(=O)=O)ccc2[nH]1 (centres unmarked) to the correct category.
### Response range B

### Prompt Exam item: assign CS(=O)(=O)c1ccccc1-c1ccc2[nH]c(COc3ccc(F)c(C(F)(F)F)c3)nc2c1 to the correct category.
### Response range C

### Prompt Exam item: assign CS(=O)(=O)c1ccccc1-c1ccc2[nH]c(COc3ccccc3)nc2c1 to the correct category.
### Response range A

### Prompt Exam item: assign CS(=O)(=O)c1ccccc1-c1ccc2[nH]c(COc3ccc(F)c(Cl)c3)nc2c1 to the correct category.
### Response range B

### Prompt Exam item: assign O=C(NCCO)c1ccccc1-c1ccc2[nH]c(COc3ccc(C(F)(F)F)cc3)nc2c1 to the correct category.
### Response range A

----------
- target-system: hTRPV1 (Homo sapiens)
- Construct: expressed in transfected cells; host or cells: HEK293
- experimental-protocol: Human TRPV1 (hTRPV1) functional assay, FLIPR intracellular Ca2+, capsaicin challenge
- Type: cell-based
- run-conditions: test concentration of 0.2 μm; HEK293 cells expressing hTRPV1, capsaicin 0.030 μM challenge; read-out: percent inhibition (symbol b)
Listed here: items and their measured inhibition at 0.2 µM.
Field: numeric (%). Do not append units.

Completed entries (count: 6):
INSERT INTO assay_data (input_smiles, readout_kind, value) VALUES
  ('CS(=O)(=O)c1ccc(OCc2nc3cc(-c4ccccc4S(=O)(=O)CCO)ccc3[nH]2)cc1', 'inhibition at 0.2 µM', 4),
  ('NS(=O)(=O)c1ccccc1-c1ccc2[nH]c(CSc3ccc(OC(F)(F)F)cc3)nc2c1', 'inhibition at 0.2 µM', 87),
  ('CS(=O)(=O)c1ccccc1-c1ccc2[nH]c(COc3cccc(C(F)(F)F)c3)nc2c1', 'inhibition at 0.2 µM', 93),
  ('O=S(=O)(CCO)c1ccccc1-c1ccc2[nH]c(COc3ccc(C(F)(F)F)cc3)nc2c1', 'inhibition at 0.2 µM', 97),
  ('CS(=O)(=O)c1ccccc1-c1ccc2[nH]c(COc3ccc(Cl)cc3F)nc2c1', 'inhibition at 0.2 µM', 85),
  ('CC(C)(C)c1ccc(OCc2nc3cc(-c4ccccc4S(N)(=O)=O)ccc3[nH]2)cc1', 'inhibition at 0.2 µM', 100);

### Prompt What does the data say about its inhibition at 0.2 µM? Entry: Cc1cc(C)cc(OCc2nc3cc(-c4ccccc4S(C)(=O)=O)ccc3[nH]2)c1
### Response 31

### Prompt What does the data say about its inhibition at 0.2 µM? Entry: COc1cccc(OCc2nc3cc(-c4ccccc4S(C)(=O)=O)ccc3[nH]2)c1
### Response 42

### Prompt What does the data say about its inhibition at 0.2 µM? Entry: CS(=O)(=O)c1ccccc1-c1ccc2[nH]c(COc3ccc(Br)cc3)nc2c1
### Response 77

----------
Listed here: items and their measured inhibition at 0.2 µM.
- target-system: hTRPV1 (Homo sapiens, UniProt Q8NER1)
- Construct: expressed in transfected cells; host or cells: HEK293
- experimental-protocol: Human TRPV1 (hTRPV1) functional assay, FLIPR intracellular Ca2+, capsaicin challenge
- Format: cell-based
- run-conditions: test concentration of 0.2 μm; HEK293 cells expressing hTRPV1, capsaicin 0.030 μM challenge; read-out: percent inhibition (symbol b)
- Procedure: The functional activity of the test compounds was determined by measuring changes in intracellular calcium concentration using a Ca^++-sensitive fluorescent dye and FLIPR™ technology. Increases in Ca^++ concentration were readily detected upon challenge with capsaicin. […] EC50 or IC50 values were determined from concentration-response studies, which were generated using the average of quadruplicate wells for each data point. […]
Field: numeric (%). Do not append units.

Completed entries (count: 3):
INSERT INTO measurements (compound, readout_kind, readout_units, value) VALUES
  ('CS(=O)(=O)c1ccccc1-c1ccc2[nH]c(COc3ccccc3F)nc2c1', 'inhibition at 0.2 µM', '%', 4),
  ('CNS(=O)(=O)c1ccccc1-c1ccc2[nH]c(COc3cccc(C(F)(F)F)c3)nc2c1', 'inhibition at 0.2 µM', '%', 99),
  ('CC(O)C(=O)c1ccccc1-c1ccc2[nH]c(COc3ccc(C(F)(F)F)cc3)nc2c1 (centres unmarked)', 'inhibition at 0.2 µM', '%', 72);

### Prompt Field: inhibition at 0.2 µM (hTRPV1 (Homo sapiens, UniProt Q8NER1)). Entry: CS(=O)(=O)c1ccccc1-c1ccc2[nH]c(COc3ccc(F)c(F)c3)nc2c1
### Response 37

### Prompt Field: inhibition at 0.2 µM (hTRPV1 (Homo sapiens, UniProt Q8NER1)). Entry: CS(=O)(=O)c1ccccc1-c1ccc2[nH]c(COc3ccc(Cl)c(Cl)c3)nc2c1
### Response 91

### Prompt Field: inhibition at 0.2 µM (hTRPV1 (Homo sapiens, UniProt Q8NER1)). Entry: CS(=O)(=O)c1ccccc1-c1ccc2[nH]c(COc3ccc(C#N)cc3)nc2c1
### Response 51

### Prompt Field: inhibition at 0.2 µM (hTRPV1 (Homo sapiens, UniProt Q8NER1)). Entry: CC(C)(C)C(O)c1ccccc1-c1ccc2[nH]c(COc3ccc(C(F)(F)F)cc3)nc2c1 (centres unmarked)
### Response 12

### Prompt Field: inhibition at 0.2 µM (hTRPV1 (Homo sapiens, UniProt Q8NER1)). Entry: CS(=O)(=O)c1ccccc1-c1ccc2[nH]c(COc3cccc(Br)c3)nc2c1
### Response 49

### Prompt Field: inhibition at 0.2 µM (hTRPV1 (Homo sapiens, UniProt Q8NER1)). Entry: CS(=O)(=O)c1ccccc1-c1ccc2[nH]c(COc3ccc(S(=O)(=O)C(F)(F)F)cc3)nc2c1
### Response 97

### Prompt Field: inhibition at 0.2 µM (hTRPV1 (Homo sapiens, UniProt Q8NER1)). Entry: CS(=O)(=O)c1ccccc1-c1ccc2[nH]c(COc3cc(C(F)(F)F)cc(C(F)(F)F)c3)nc2c1
### Response 33

### Prompt Field: inhibition at 0.2 µM (hTRPV1 (Homo sapiens, UniProt Q8NER1)). Entry: CS(=O)(=O)c1ccccc1-c1ccc2[nH]c(COc3ccc(C4CC4)cc3)nc2c1
### Response 98
